System: B. microti
Assay: In vitro growth inhibition of B. microti
Assay type: cell-based
Settings: Babesia microti, Erythrocyte; in vitro culture in mouse erythrocytes, 72 h, 37 ℃; read-out: B. microti IC50 (growth inhibition)
measurement.kind: pIC50
Worth noting: pIC50 values are minus log10 of concentrations stated in mol/L.

Provide B. microti pIC50 reading for O=C(O)c1ccccc1Cc1ccc2ccc(O)cc2c1 [TA] .
3.91
